Species on record: Rattus norvegicus
Assay: DrugMatrix - Regimen: Daily Repeat
Assay type: toxicity, organism-based, Sprague-Dawley
Set-up: regimen Daily Repeat, gender Male, age 6-8 weeks
Details: in vivo, po, 0 mg/kg, 120 h, tissue Blood, route oral GAVAGE, dose level Control, time 5 day, vehicle .5 % CMC
endpoint_label: EOSINOPHIL
# output: number + unit

Problem: Given the entry CN(C)[C@@H]1C(O)=C(C(N)=O)C(=O)[C@@]2(O)C(O)=C3C(=O)c4c(O)ccc(Cl)c4[C@@](C)(O)[C@H]3C[C@@H]12 , report its measured EOSINOPHIL.
Result: 0.67%

Problem: Now the same for Clc1ccccc1CN1CCc2sccc2C1
Result: 0.17%

Problem: Now the same for CC(C(=O)O)c1ccc2oc(-c3ccc(Cl)cc3)nc2c1 (stereo not given)
Result: 0.44%

Problem: Now the same for CN/C(=N/CCSCc1nc[nH]c1C)NC#N
Result: 1%

Problem: Now the same for Cn1c(=O)c2c(ncn2CC(O)CO)n(C)c1=O (stereo not given)
Result: 0.67%

* * *

Could you please report measured ALKALINE PHOSPHATASE for the items listed next?
Organism: Rattus norvegicus
Assay: DrugMatrix - Regimen: Daily Repeat
Format: toxicity, organism-based, Sprague-Dawley
Set-up: regimen Daily Repeat, gender Male, age 6-8 weeks
Details: in vivo, po, 10 mg/kg, 120 h, tissue Plasma, route oral GAVAGE, dose level Low, time 5 day, vehicle .5 % CMC
Give your result in u/L as a bare value.

Problem: Given the entry CNCCC(Oc1ccc(C(F)(F)F)cc1)c1ccccc1 (centres undefined) , report its measured ALKALINE PHOSPHATASE.
Result: 381

Problem: Now the same for O=C1CN=C(c2ccccc2Cl)c2cc([N+](=O)[O-])ccc2N1
Result: 274.67

Problem: Now the same for O=C1C(CC[S+]([O-])c2ccccc2)C(=O)N(c2ccccc2)N1c1ccccc1 (centres undefined)
Result: 307

Problem: Now the same for Fc1ccc(C(c2ccc(F)cc2)N2CCN(C/C=C/c3ccccc3)CC2)cc1
Result: 419

* * *

Could you please report measured BLOOD UREA NITROGEN for the items listed next?
Species: Rattus norvegicus
Assay: DrugMatrix - Regimen: Daily Repeat
Assay type: toxicity, organism-based, Sprague-Dawley
Design: regimen Daily Repeat, gender Male, age 6-8 weeks
Conditions: in vivo, sc, 0 mg/kg, 72 h, tissue Plasma, route subcutaneous, dose level Control, time 3 day, […]
Give your result in mg/dL as a bare value.

Problem: Given the entry CCN(CC)CCOCCC1=CCC2CC1C2(C)C (stereo not given) , report its measured BLOOD UREA NITROGEN.
Result: 14.17

Problem: Now the same for Oc1c(Cl)cc(Cl)c(Cl)c1Cc1c(O)c(Cl)cc(Cl)c1Cl
Result: 15.33

Problem: Now the same for CC(C)(C)CC(C)(C)c1ccc(OCCOCC[N+](C)(C)Cc2ccccc2)cc1.[Cl-] [BENZETHONIUM CHLORIDE]
Result: 15.33

Problem: Now the same for O=C(Nc1ccc(Br)cc1)c1cc(Br)cc(Br)c1O
Result: 17.83

Problem: Now the same for CCC(=O)O[C@]1(C(=O)CCl)[C@@H](C)C[C@H]2[C@@H]3CCC4=CC(=O)C=C[C@]4(C)[C@@]3(F)[C@@H](O)C[C@@]21C [CLOBETASOL PROPIONATE]
Result: 17.83

* * *

Species: Rattus norvegicus
Assay: DrugMatrix - Regimen: Daily Repeat
Type: toxicity, organism-based, Sprague-Dawley
Design: regimen Daily Repeat, gender Male, age 6-8 weeks
Conditions: in vivo, sc, 0 mg/kg, 120 h, tissue Blood, route subcutaneous, dose level Control, time 5 day, […]
Could you please report measured LEUKOCYTE COUNT for the items listed next?
Give your result in x10E3/uL as a bare value.

Problem: Given the entry O=C(Nc1ccc(Br)cc1)c1cc(Br)cc(Br)c1O , report its measured LEUKOCYTE COUNT.
Result: 14.6

Problem: Now the same for CCN(CC)CCOCCC1=CCC2CC1C2(C)C (stereo not given)
Result: 13.22

Problem: Now the same for CC(C)(C)CC(C)(C)c1ccc(OCCOCC[N+](C)(C)Cc2ccccc2)cc1.[Cl-] [BENZETHONIUM CHLORIDE]
Result: 14.18

Problem: Now the same for Oc1c(Cl)cc(Cl)c(Cl)c1Cc1c(O)c(Cl)cc(Cl)c1Cl
Result: 14.18

Problem: Now the same for CCC(=O)O[C@]1(C(=O)CCl)[C@@H](C)C[C@H]2[C@@H]3CCC4=CC(=O)C=C[C@]4(C)[C@@]3(F)[C@@H](O)C[C@@]21C [CLOBETASOL PROPIONATE]
Result: 14.6

* * *

Species on record: Rattus norvegicus
Assay: DrugMatrix - Regimen: Daily Repeat
Format: toxicity, organism-based, Sprague-Dawley
Parameters: regimen Daily Repeat, gender Male, age 6-8 weeks
Settings: in vivo, po, 0 mg/kg, 72 h, tissue Plasma, route oral GAVAGE, dose level Control, time 3 day, […]
endpoint_label: GLUCOSE (mg/dL)
Give your result in mg/dL as a bare value.

Problem: Given the entry CO[C@H]1/C=C/O[C@@]2(C)Oc3c(C)c(O)c4c(O)c(c(/C=N/N5CCN(C6CCCC6)CC5)c(O)c4c3C2=O)NC(=O)/C(C)=C\C=C\[C@H](C)[C@H](O)[C@@H](C)[C@@H](O)[C@@H](C)[C@H](OC(C)=O)[C@@H]1C [RIFAPENTINE] , report its measured GLUCOSE.
Result: 156.67

Problem: Now the same for CC(C)(C)NC(=O)[C@H]1CC[C@H]2[C@@H]3CC[C@H]4NC(=O)C=C[C@]4(C)[C@H]3CC[C@]12C [FINASTERIDE]
Result: 198.33

Problem: Now the same for COc1cc(N)c(Cl)cc1C(=O)NC1CCN(CCCOc2ccc(F)cc2)CC1OC (centres undefined) [CISAPRIDE]
Result: 156.67

Problem: Now the same for Clc1ccc(COC(Cn2ccnc2)c2ccc(Cl)cc2Cl)cc1 (centres undefined) [ECONAZOLE]
Result: 164

* * *

Organism: Rattus norvegicus
Assay: DrugMatrix - Regimen: Daily Repeat
Assay type: toxicity, organism-based, Sprague-Dawley
Parameters: regimen Daily Repeat, gender Male, age 6-8 weeks
Details: in vivo, po, 2000 mg/kg, 120 h, tissue Blood, route oral GAVAGE, dose level High, time 5 day, vehicle .5 % CMC
Could you please report measured MEAN CORPUSCULAR VOLUME for the items listed next?
Give your result in fL as a bare value.

Problem: Given the entry CC1(C)S[C@@H]2[C@H](NC(=O)[C@H](N)c3ccccc3)C(=O)N2[C@H]1C(=O)O , report its measured MEAN CORPUSCULAR VOLUME.
Result: 60.97

Problem: Now the same for CN(C/C=C/C#CC(C)(C)C)Cc1cccc2ccccc12
Result: 60.57

Problem: Now the same for CN/C(=N/CCSCc1nc[nH]c1C)NC#N
Result: 61.33

Problem: Now the same for O=C1Nc2ccc(Cl)cc2C(c2ccccc2Cl)=NC1O (stereo not given)
Result: 59.1

Problem: Now the same for NC1CCN(c2nc3c(cc2F)c(=O)c(C(=O)O)cn3-c2ccc(F)cc2F)C1 (stereo not given)
Result: 60.27

* * *

Organism: Rattus norvegicus
Assay: DrugMatrix - Regimen: Daily Repeat
Assay type: toxicity, organism-based, Sprague-Dawley
Parameters: regimen Daily Repeat, gender Male, age 6-8 weeks
Settings: in vivo, po, 1500 mg/kg, 120 h, tissue Blood, route oral GAVAGE, dose level High, time 5 day, vehicle .5 % CMC
endpoint_label: ERYTHROCYTE COUNT (x10E6/uL)
Give your result in x10E6/uL as a bare value.

Problem: Given the entry CC(C)Oc1ccc2c(=O)c(-c3ccccc3)coc2c1 [IPRIFLAVONE] , report its measured ERYTHROCYTE COUNT.
Result: 5.81

Problem: Now the same for CN(C)[C@@H]1C(O)=C(C(N)=O)C(=O)[C@@]2(O)C(O)=C3C(=O)c4c(O)ccc(Cl)c4[C@@](C)(O)[C@H]3C[C@@H]12 [CHLORTETRACYCLINE]
Result: 5.62

Problem: Now the same for CC(C)=CCC/C(C)=C/CO [GERANIOL]
Result: 6.01

Problem: Now the same for COC(=O)Nc1nc2ccc([S+]([O-])c3ccccc3)cc2[nH]1 (stereo not given) [OXFENDAZOLE]
Result: 5.39

Problem: Now the same for O=c1cnn([C@@H]2O[C@H](CO)[C@@H](O)[C@H]2O)c(=O)[nH]1 [6-AZAURIDINE]
Result: 4.96

* * *

Could you please report measured LYMPHOCYTE for the items listed next?
Organism: Rattus norvegicus
Assay: DrugMatrix - Regimen: Daily Repeat
Format: toxicity, organism-based, Sprague-Dawley
Parameters: regimen Daily Repeat, gender Male, age 6-8 weeks
Conditions: in vivo, sc, 0 mg/kg, 72 h, tissue Blood, route subcutaneous, dose level Control, time 3 day, […]
Give your result in % as a bare value.

Problem: Given the entry CCC(=O)O[C@]1(C(=O)CCl)[C@@H](C)C[C@H]2[C@@H]3CCC4=CC(=O)C=C[C@]4(C)[C@@]3(F)[C@@H](O)C[C@@]21C [CLOBETASOL PROPIONATE] , report its measured LYMPHOCYTE.
Result: 81.17

Problem: Now the same for Oc1c(Cl)cc(Cl)c(Cl)c1Cc1c(O)c(Cl)cc(Cl)c1Cl [HEXACHLOROPHENE]
Result: 87.33

Problem: Now the same for O=C(Nc1ccc(Br)cc1)c1cc(Br)cc(Br)c1O [TRIBROMSALAN]
Result: 81.17

Problem: Now the same for CC(C)(C)CC(C)(C)c1ccc(OCCOCC[N+](C)(C)Cc2ccccc2)cc1.[Cl-] [BENZETHONIUM CHLORIDE]
Result: 87.33

Problem: Now the same for CCN(CC)CCOCCC1=CCC2CC1C2(C)C (stereo not given) [MYRTECAINE]
Result: 91.17
